- system-tested: T1, human BCMA on the surface of RPMI8226 cells (human, UniProt Q02223 1-184)
- T1 construct: whole, on cells; also called BCMA receptor; RPMI8226 (BCMA+)
- T1 sequence (looked up): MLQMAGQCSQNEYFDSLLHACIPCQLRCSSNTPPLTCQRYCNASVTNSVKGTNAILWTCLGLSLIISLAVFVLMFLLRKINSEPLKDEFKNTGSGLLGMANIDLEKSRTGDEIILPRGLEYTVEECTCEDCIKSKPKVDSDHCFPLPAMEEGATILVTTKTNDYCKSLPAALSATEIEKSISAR
- measurement-notes: flow cytometry on RPMI8226 (BCMA+) cells, anti-human Fc-PE, one antibody concentration (not given)
metric: Fluorescent signal level (sample/background)
Write the number on its own, no unit after it.

Query: Reported Fluorescent signal level (sample/background) for Antibody 01-016 (antibody, human IgG1, kappa, L234A L235A, V domains shown, Full-length human IgG1 with L234A/L235A (pEE-HCLALA IgG1 vector) and CK light chain constant domain (pEE-CK), made in CHO-T cells; also called candidate 016) VH: EVQLVQSGGGLVQPGGSLRLSCAVSGFTFSSSVMSWVRQAPGKGFEWVSGYNGGSDRAGFADSVEGRFTISRDNAKNTLYLQMNSLKPEDTAVYYCARYIANSGTYYWDYWGQGTLVTVSS VL: QPVLTQPPSVSEAPRQRVTISCSGSSSNIGNNAVNWYQQLPGKAPKLLIFKNNQRPSGVPDRFSGSKSGTSASLVISGLQSEDEADYYCAAWDGSLNAWMFGGGTKLTVLR : what is it?
Response: 7.87

Query: Could you do the same for Antibody 01-006 (antibody, human IgG1, kappa, L234A L235A, V domains shown, Full-length human IgG1 with L234A/L235A (pEE-HCLALA IgG1 vector) and CK light chain constant domain (pEE-CK), made in CHO-T cells; also called candidate 06) VH: EVQLVQSGGGLVQPGGSLRLSCSASGFTFSSGLMSWVRQAPGKGFEWVSGYNGGSDRAGYTDSVKGRFTISRDNAKNTLYLQMNSLKPEDTAVYYCARYIANSGTYYWDYWGQGTLVTVSS VL: QAVLTQPPSVSGTPGQRVTISCSGSTSNIGHRTVNWYQQFPGAAPKLLIYRNNQRPSGVPARFSGSKSGTSASLAISGLQSEDEADYHCAAWDDSLTAWVFGGGTQLTVLR , please?
Response: 9.61

Query: Could you do the same for Antibody 01-027 (antibody, human IgG1, kappa, L234A L235A, V domains shown, Full-length human IgG1 with L234A/L235A (pEE-HCLALA IgG1 vector) and CK light chain constant domain (pEE-CK), made in CHO-T cells; also called candidate 027) VH: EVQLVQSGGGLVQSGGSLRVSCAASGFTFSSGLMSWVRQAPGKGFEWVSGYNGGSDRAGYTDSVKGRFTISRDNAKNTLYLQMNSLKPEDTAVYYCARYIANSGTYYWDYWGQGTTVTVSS VL: QAVLTQPPSASGTPGQRVSISCSGGISNIGSNIVNWYQHLPGTAPKLLIYSGNQRPSGVPDRFSGSKSGTSASLAISGLQSEDEADYYCSSWDSDLRNWVFGGGTKLTVLR , please?
Response: 19.1

Switching to the query record.
Query: Reported Fluorescent signal level (sample/background) for Antibody 01-025 (antibody, human IgG1, kappa, L234A L235A, V domains shown, Full-length human IgG1 with L234A/L235A (pEE-HCLALA IgG1 vector) and CK light chain constant domain (pEE-CK), made in CHO-T cells; also called candidate 025) VH: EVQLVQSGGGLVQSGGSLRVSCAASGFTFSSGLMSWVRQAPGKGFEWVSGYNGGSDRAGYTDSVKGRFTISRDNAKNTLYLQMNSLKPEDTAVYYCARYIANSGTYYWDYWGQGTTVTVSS VL: QPVLTQPPSVSEAPRQRVTISCSGSSSNIGNNAVNWYQQLPGKAPKLLIYSTNQRPSGVPDRFSGSKSGTSASLAISGLQSEDEADYYCAAWDDRVSAWLFGGGTKLTVLR : what is it?
Response: 15
